This collection of values is drawn from patent US20260137697A1.

HCT116 pERK (Ymin %) reference
test system: pERK, HCT116 cells; test: Phospho-ERK inhibition, AlphaLISA p-ERK 1/2, HCT-116; assay type: cell-based, human; conditions: Table 3; lowest % inhibition value of the pERK IC50 curve; above −20% = no paradoxical induction
// units = %; emit number, no label

Consider the following illustrative entries.
{"molecule": "O=C(c1cn(-c2nc3c(Nc4c(F)ccc(NS(=O)(=O)c5cccc(Cl)c5Cl)c4F)ncnc3s2)c2ccccc12)N1C2CCC1COC2 [Example 51]", "HCT116 pERK (Ymin %)": "−1"}
{"molecule": "Cc1c(F)cccc1S(=O)(=O)Nc1ccc(F)c(Nc2ncnc3sc(-n4nc(C(=O)N(C)CCN(C)C)c5ccccc54)nc23)c1F [Example 27]", "HCT116 pERK (Ymin %)": "−3"}
{"molecule": "N#CC1CN(C(=O)c2cn(-c3nc4c(Nc5c(F)ccc(NS(=O)(=O)c6cccc(Cl)c6Cl)c5F)ncnc4s3)c3ccccc23)C1 [Example 54]", "HCT116 pERK (Ymin %)": "−6"}
{"molecule": "O=S(=O)(Nc1ccc(F)c(Nc2ncnc3sc(-n4nnc5ccccc54)nc23)c1F)c1cccc(Cl)c1Cl [Example 21]", "HCT116 pERK (Ymin %)": "−4"}
{"molecule": "CC(=O)N1CCN(c2cccc3c2ncn3-c2nc3c(Nc4c(F)ccc(NS(=O)(=O)c5cccc(Cl)c5Cl)c4F)ncnc3s2)CC1 [Example 130]", "HCT116 pERK (Ymin %)": "−2"}

What HCT116 pERK (Ymin %) value was documented for this molecule, Cc1c(F)cccc1S(=O)(=O)Nc1ccc(F)c(Nc2ncnc3sc(-n4cc(C(=O)NCc5cccnc5)c5ccccc54)nc23)c1F [Example 29] ?
5

----------
molecular target: BRAF (Homo sapiens); construct: GST; purchased Millipore Sigma B4062-10UG; experiment: BRAF kinase activity assay (ADP-Glo); type: biochemical; conditions: Table 3; 10 μM ATP, kinase-dead MEK1 substrate
Sequence (P15056 whole entry): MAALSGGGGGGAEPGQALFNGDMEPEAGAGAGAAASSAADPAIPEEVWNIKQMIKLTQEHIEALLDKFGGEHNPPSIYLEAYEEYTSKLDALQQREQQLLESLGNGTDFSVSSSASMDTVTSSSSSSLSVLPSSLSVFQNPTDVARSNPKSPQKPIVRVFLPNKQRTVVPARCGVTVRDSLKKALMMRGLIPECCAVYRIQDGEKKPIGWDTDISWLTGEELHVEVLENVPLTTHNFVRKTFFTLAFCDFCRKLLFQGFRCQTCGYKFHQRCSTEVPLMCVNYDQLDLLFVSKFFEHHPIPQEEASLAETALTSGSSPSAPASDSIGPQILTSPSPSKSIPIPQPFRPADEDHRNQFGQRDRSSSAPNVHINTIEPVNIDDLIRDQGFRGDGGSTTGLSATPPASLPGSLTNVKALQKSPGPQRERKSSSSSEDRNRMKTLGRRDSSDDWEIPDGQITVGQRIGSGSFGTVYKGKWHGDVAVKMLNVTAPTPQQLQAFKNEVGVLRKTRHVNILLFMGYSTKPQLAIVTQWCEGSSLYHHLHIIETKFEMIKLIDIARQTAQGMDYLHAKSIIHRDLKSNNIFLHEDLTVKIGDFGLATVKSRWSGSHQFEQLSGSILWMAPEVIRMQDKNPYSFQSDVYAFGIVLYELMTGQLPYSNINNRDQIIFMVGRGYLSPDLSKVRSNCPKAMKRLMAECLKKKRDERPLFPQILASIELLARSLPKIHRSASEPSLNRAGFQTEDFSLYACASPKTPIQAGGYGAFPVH
measured-attribute: IC50

{"molecule": "Cc1c(Cl)cccc1S(=O)(=O)Nc1ccc(F)c(Nc2ncnc3sc(-n4cnc5c(C(C)(C)C#N)cccc54)nc23)c1F [Example 116]", "assay-target": "BRAF (Homo sapiens)", "IC50": "1 to 10 nM"}
{"molecule": "CC1(O)CCN(C(=O)c2cn(-c3nc4c(Nc5c(F)ccc(NS(=O)(=O)c6cccc(Cl)c6Cl)c5F)ncnc4s3)c3ccccc23)CC1 [Example 85]", "assay-target": "BRAF (Homo sapiens)", "IC50": "1 to 10 nM"}

Please give the measured IC50 for this molecule: O=C(c1cn(-c2nc3c(Nc4c(F)ccc(NS(=O)(=O)c5cccc(Cl)c5Cl)c4F)ncnc3s2)c2ccccc12)N1CC2CC1CO2 (stereo not drawn) [Example 84]
1 to 10 nM

----------
Test system: pERK, HCT116 cells
Assay: Phospho-ERK inhibition, AlphaLISA p-ERK 1/2, HCT-116
Assay type: cell-based, human
Conditions: Table 3; lowest % inhibition value of the pERK IC50 curve; above −20% = no paradoxical induction
Method: All cancer cell lines (A375, A101D, A2058, RKO, HT29 SK-MEL 30, IPC298, HepG2, HCT-116, Lovo, SW620, SW480, NCI-H358, NCI-H2122, Calu-6, NCIH2087, NCIH1755, NCIH1666 and Mewo) were obtained from ATCC and cultured in RPM1-1640 medium (Gibco) supplemented with 5% heat inactivated fetal bovine serum (FBS, Wisent) at 37° C. under 5% CO2. Cells were maintained in T175 flasks (Greiner). […] The effect of each compound dilution on the pERK signal was expressed in % inhibition and calculated as follows. […]
Form field: HCT116 pERK (Ymin %) (one value per entry).
Answer with a number only, understood to be in %.

# example entries with known answers
{"compound": "N#CCC1CN(C(=O)c2cn(-c3nc4c(Nc5c(F)ccc(NS(=O)(=O)c6cccc(Cl)c6Cl)c5F)ncnc4s3)c3ccccc23)C1 [Example 60]", "assay-target": "pERK, HCT116 cells", "measured-attribute": "HCT116 pERK (Ymin %)", "output-unit": "%", "reported-result": "−2"}
{"compound": "O=C1CCCC12CCN(c1cccc3c1ncn3-c1nc3c(Nc4c(F)ccc(NS(=O)(=O)c5cccc(Cl)c5Cl)c4F)ncnc3s1)CC2 [Example 151]", "assay-target": "pERK, HCT116 cells", "measured-attribute": "HCT116 pERK (Ymin %)", "output-unit": "%", "reported-result": "−2"}
{"compound": "O=S(=O)(Nc1ccc(F)c(Nc2ncnc3sc(-n4cnc5c(N6CC7CC6CO7)cccc54)nc23)c1F)c1cccc(Cl)c1Cl (stereo not shown) [Example 127]", "assay-target": "pERK, HCT116 cells", "measured-attribute": "HCT116 pERK (Ymin %)", "output-unit": "%", "reported-result": 1}

Would you mind telling me what HCT116 pERK (Ymin %) value was observed for CC(C)(O)C1CN(C(=O)c2cn(-c3nc4c(Nc5c(F)ccc(NS(=O)(=O)c6cccc(Cl)c6Cl)c5F)ncnc4s3)c3ccccc23)C1 [Example 87] ?
−8

Any idea what HCT116 pERK (Ymin %) was measured for COc1ccc(S(=O)(=O)Nc2ccc(F)c(Nc3ncnc4sc(-n5cnc6ccccc65)nc34)c2F)c(C)c1Cl [Example 14] ?
−14

What does the record list as HCT116 pERK (Ymin %) for O=S(=O)(Nc1ccc(F)c(Nc2ncnc3sc(-n4cnc5cc(F)c(F)cc54)nc23)c1F)c1cccc(Cl)c1Cl [Example 19] ?
−14

Could you tell me which HCT116 pERK (Ymin %) is on file for Cc1c(Cl)cccc1S(=O)(=O)Nc1ccc(F)c(Nc2ncnc3sc(-n4cnc5c(F)cccc54)nc23)c1F [Example 36] ?
−13

// lookup HCT116 pERK (Ymin %) for Cc1c(F)cccc1S(=O)(=O)Nc1ccc(F)c(Nc2ncnc3sc(-n4nc(C(=O)N(C)CCN(C)C)c5ccccc54)nc23)c1F [Example 39]
−12

Consider the compound O=S(=O)(Nc1ccc(F)c(Nc2ncnc3sc(-n4cnc5c(N6CCC7(CCCO7)CC6)cccc54)nc23)c1F)c1cccc(Cl)c1Cl [Example 136] and give its measured HCT116 pERK (Ymin %).
−17
